Molecular target: Voltage-gated inwardly rectifying potassium channel KCNH2 (Homo sapiens)
Assay: Human Ether-a-go-go-Related Gene (hERG) channel small molecule antagonists: fluorescence cell-based qHTS assay (AID 1671200); note: nearly all actives have a fitted effect of over 50% in size
Details: hERG-U2OS cells, FluxOR thallium flux fluorescence; series mostly up to 76.8 µM
Excerpt: National Center for Advancing Translational Sciences [NCATS] U.S. Environmental Protection Agency [EPA] National Institutes of Environmental Health Sciences [NIEHS] National Toxicology Program [NTP] U.S. Food and Drug Administration [FDA] Mutations in the hERG channel cause Long QT (LQT) syndrome. LQT syndrome is a cardiac disorder which can cause ventricle arrhythmia and sudden death. Additionally, compounds which block the hERG channel can cause acquired LQT syndrome. […]
Inconclusive results are not listed. Active and inactive are the calls of the source. Calls come from the whole dose curve; as a rule, active = well fitted inhibition curve with a large enough effect in the repeat runs; inconclusive = weak or mixed curves; inactive = flat fitted curve, though single readings scatter.
Choose one outcome from this list and give only that: Y for active, N for inactive

INSERT INTO measurements (substance_smiles, group_label) VALUES
  ('CS(=O)(=O)OCCCCOS(C)(=O)=O', 'N'),
  ('O=c1[nH]cnc2c1ncn2[C@H]1CC[C@@H](CO)O1', 'N'),
  ('CCCCOC(=O)c1ccc(O)cc1', 'N'),
  ('COc1ccc2cc(S(=O)(=O)N[C@H](CC(=O)N[C@H](Cc3ccc(CN4[C@H](C)CCC[C@@H]4C)cc3)C(=O)N(C)C(C)C)c3ccc4c(c3)OCO4)ccc2c1', 'Y');

Input line: Give the logged outcome of this assay for the following molecule: CCc1nc(N)nc(N)c1-c1ccc(Cl)cc1
Output line: N

###

Experiment: qHTS RealTime-Glo MT Cell Viability Assay in HepG2 cells - 16 hour (AID 1224885); note: nearly all actives have a fitted effect of over 50% in size
Conditions: RealTime-Glo luminescence; series mostly up to 76.8 µM
Records with an inconclusive call do not appear. Calls of active or inactive are those of the source. Calls follow the shape of the dose curve; as a rule, active = well fitted cell-killing curve with a large enough effect in the repeat runs; inconclusive = weak or mixed curves; inactive = flat fitted curve, though single readings scatter.
Result category, one only: active, inactive

INSERT INTO results (compound, group_label) VALUES
  ('CC(C)NCC(O)c1ccc(O)c(O)c1 (stereo not drawn)', 'inactive'),
  ('NS(=O)(=O)c1cc2c(cc1Cl)NCNS2(=O)=O', 'inactive'),
  ('Cc1ccc(S(=O)(=O)O)cc1', 'inactive'),
  ('CCCCC(CC)C(=O)O (stereo not drawn)', 'inactive'),
  ('CN1[C@@H]2CC(OC(=O)[C@H](CO)c3ccccc3)C[C@H]1[C@@H]1O[C@@H]12 (stereo partly drawn)', 'inactive');

Input line: Recorded call for C/C=C/C=C/C(=O)O ?
Output line: inactive

Input line: Please state the recorded outcome for this compound: OC[C@H]1O[C@H](O[C@]2(CCl)O[C@H](CCl)[C@@H](O)[C@@H]2O)[C@H](O)[C@@H](O)[C@H]1Cl
Output line: inactive

Input line: // return assay outcome for CC(=O)Nc1c(I)c(NC(C)=O)c(I)c(C(=O)O)c1I
Output line: inactive

Input line: // return assay outcome for Cn1c(=O)c2c(ncn2C)n(C)c1=O
Output line: inactive

Input line: For this compound, state the assay outcome: O=c1[nH]cc(F)c(=O)[nH]1
Output line: inactive

Input line: Hello, I am checking results. What call was entered for C1=CC2C3C=CC(C3)C2C1 (stereo not drawn) ?
Output line: inactive

Input line: Recorded test call requested for CN[C@H]1CC[C@@H](c2ccc(Cl)c(Cl)c2)c2ccccc21
Output line: active

Input line: Tell me the recorded outcome of this test for CCCCC1(COC(=O)CCC(=O)O)C(=O)N(c2ccccc2)N(c2ccccc2)C1=O .
Output line: inactive

###

Experiment: qHTS assay to identify small molecule antagonists of the progesterone receptor (PR) signaling pathway - cell viability counter screen (AID 1346798); note: nearly all actives have a fitted effect of over 50% in size; note: potency is the fitted concentration of half-maximal effect
Details: PR-UAS-bla HEK293T viability, CellTiter-Glo luminescence, 16 h; series mostly up to 92.4 µM
Records with an inconclusive call do not appear. The source made the active and inactive calls. Calls come from the whole dose curve; as a rule, active = well fitted cell-killing curve with a large enough effect in the repeat runs; inconclusive = weak or mixed curves, or effect the other way; inactive = no such curve, though single readings can be large or run the other way.
Observable: Potency

Solved entries:
INSERT INTO results (substance_smiles, measured_result) VALUES
  ('CCCCC1(COC(=O)CCC(=O)O)C(=O)N(c2ccccc2)N(c2ccccc2)C1=O', 'inactive'),
  ('Nc1c2c(nc3ccccc13)CCCC2', 'inactive'),
  ('COc1ccc(OC(F)(F)F)cc1CN[C@H]1CCCN[C@H]1c1ccccc1', '30.6 µM (active)'),
  ('CC12CCC(CC1)C(C)(C)O2', 'inactive'),
  ('CCCCNC(=O)NS(=O)(=O)c1ccc(C)cc1', 'inactive'),
  ('Cc1cc(C)nc(NS(=O)(=O)c2ccc(N)cc2)n1', 'inactive');

Input line: Sample CCN(Cc1c(F)cccc1Cl)c1c([N+](=O)[O-])cc(C(F)(F)F)cc1[N+](=O)[O-] — what was its Potency?
Output line: 21.7 µM (active)

Input line: Given the molecule F[B-](F)(F)F , what is its reported Potency?
Output line: inactive

###

Assay: qHTS assay to test for compound auto fluorescence at 460 nm (blue) in HepG2 cells (AID 720687)
Details: autofluorescence 405/460 nm, 1 h; series mostly up to 91.3 µM
The source made the active and inactive calls. Calls follow the shape of the dose curve; as a rule, active = well fitted curve in the direction sought with a large enough effect in the repeat runs; inconclusive = weak or mixed curves; inactive = flat fitted curve, though single readings scatter.
Observable: outcome

Check out these entries, answers already filled in.
INSERT INTO results (compound, measured_result) VALUES
  ('CN(C)CCOC(C)(c1ccccc1)c1ccccn1 (configuration not stated)', 'inactive'),
  ('O=c1[nH]cc(F)c(=O)[nH]1', 'inactive'),
  ('CCCCCCCCCCCCCCCC[N+](C)(C)Cc1ccccc1', 'inactive'),
  ('CC(=O)Nc1c(I)c(NC(C)=O)c(I)c(C(=O)O)c1I', 'inactive');

Let's switch to this compound now.
Input line: // lookup outcome for CCCCC(CC)C(=O)O (configuration not stated)
Output line: inactive

###

Assay: qHTS assay to identify small molecule agonists of the androgen receptor (AR) signaling pathway in the presence of an antagonist - cell viability counter screen (AID 1259379); note: nearly all actives have a fitted effect of over 25% in size
Settings: MDA-kb2 viability, CellTiter-Fluor, 16 h; series mostly up to 92.4 µM
Results filed as inconclusive are left out. Active and inactive are the calls of the source. The call rests on the fitted dose curve; in most records, active means well fitted cell-killing curve with a large enough effect in the repeat runs; inconclusive means weak or mixed curves, or effect the other way; inactive means flat fitted curve, though single readings scatter.
Please state which outcome applies, choosing from active, inactive

INSERT INTO measurements (substance_smiles, group_label) VALUES
  ('Cc1cc(C)nc(NS(=O)(=O)c2ccc(N)cc2)n1', 'inactive');

Input line: Hi, sorry to bother you, what did the test record for Cc1ncc([N+](=O)[O-])n1CCO ?
Output line: inactive

Input line: Could you check what this test reported for COc1ccc(C(Cl)=C(c2ccc(OC)cc2)c2ccc(OC)cc2)cc1 ?
Output line: inactive

Input line: What call does the record list for Nc1ccc(O)c([N+](=O)[O-])c1 ?
Output line: active

Input line: What was the test verdict on CN(N=O)C(=O)N[C@@H]1[C@@H](O)[C@H](O)[C@@H](CO)O[C@@H]1O ?
Output line: inactive

Input line: Dear colleague, could you share the recorded outcome for NC(=O)c1cccnc1 when you have a moment?
Output line: inactive

Input line: Per the assay record, what outcome was assigned to Nc1ccc(S(N)(=O)=O)cc1 ?
Output line: inactive

Input line: Record lookup: outcome of this test for NC(CO)(CO)CO ?
Output line: inactive

Input line: Per the records of this test, what outcome belongs to COc1ccc2c(c1)c(CC(=O)O)c(C)n2C(=O)c1ccc(Cl)cc1 ?
Output line: inactive

Input line: Short answer needed: outcome of this test for Cc1ccc(S(=O)(=O)O)cc1 ?
Output line: inactive

Input line: Dear all, I need the recorded test outcome for CCc1nc(N)nc(N)c1-c1ccc(Cl)cc1 , thank you.
Output line: inactive

Input line: Could you kindly confirm the outcome this assay logged for CC12CCC(CC1)C(C)(C)O2 ?
Output line: inactive

Input line: // param item: CC1(C)S[C@@H]2[C@H](NC(=O)[C@H](N)c3ccccc3)C(=O)N2[C@H]1C(=O)O ; yields the recorded call
Output line: inactive

###

Experiment: qHTS assay to identify small molecule agonists of the sonic hedgehog signaling (Shh) pathway - cell viability counter screen (AID 1259366); note: nearly all actives have a fitted effect of over 50% in size
Conditions: NIH/3T3 Gli1-Luc viability, CellTiter-Fluor, 24 h; series mostly up to 92.4 µM
Results filed as inconclusive are left out. Active and inactive are the calls of the source. Calls follow the shape of the dose curve; as a rule, active = well fitted cell-killing curve with a large enough effect in the repeat runs; inconclusive = weak or mixed curves, or effect the other way; inactive = flat fitted curve, though single readings scatter.
Allowed answers: yes (1) (active), no (0) (inactive)

Input line: For CC(C)NCC(O)c1ccc(O)c(O)c1 (stereo not given) , which call appears in the assay record?
Output line: no (0)

Input line: How did this test come out for CCCCCCCC(=O)OCC(COC(=O)CCCCCCC)OC(=O)CCCCCCC ?
Output line: no (0)

Input line: Answer briefly: the call reported for Nc1ccc(S(N)(=O)=O)cc1 in this assay.
Output line: no (0)

Input line: Hi, sorry to bother you, what did the test record for COc1ccc(CN(CCN(C)C)c2ccccn2)cc1 ?
Output line: no (0)

Input line: Per the assay record, what outcome was assigned to NC1CCCCC1 ?
Output line: no (0)

Input line: Could you kindly confirm the outcome this assay logged for CC(O)(P(=O)(O)O)P(=O)(O)O ?
Output line: no (0)

Input line: # fetch the recorded call for COc1cccc(O)c1O here
Output line: yes (1)

Input line: Record lookup: outcome of this test for CCCc1cc(=O)[nH]c(=S)[nH]1 ?
Output line: no (0)

Input line: How was CCN(Cc1c(F)cccc1Cl)c1c([N+](=O)[O-])cc(C(F)(F)F)cc1[N+](=O)[O-] classified in this test?
Output line: no (0)

Input line: How did this test come out for CCCC[P+](CCCC)(CCCC)CCCC ?
Output line: no (0)

Input line: Tell me the assay call for CN(C)CCOC(c1ccccc1)c1ccccc1 please.
Output line: no (0)

Input line: I would be grateful if you could indicate the recorded call for CC12CCC(CC1)C(C)(C)O2 .
Output line: no (0)

Input line: Name the outcome recorded for CC(C)c1c(C(=O)Nc2ccccc2)c(-c2ccccc2)c(-c2ccc(F)cc2)n1CC[C@@H](O)C[C@@H](O)CC(=O)O in the assay.
Output line: no (0)

Input line: Look up the recorded call for COc1ccc2cc(S(=O)(=O)N[C@H](CC(=O)N[C@H](Cc3ccc(CN4[C@H](C)CCC[C@@H]4C)cc3)C(=O)N(C)C(C)C)c3ccc4c(c3)OCO4)ccc2c1 in this test.
Output line: yes (1)

Input line: Per the records of this test, what outcome belongs to Nc1ccc([N+](=O)[O-])cc1O ?
Output line: yes (1)

Input line: Call for entry C/C=C/C=C/C(=O)O :
Output line: no (0)

Input line: State the result this test recorded for Cc1cn([C@H]2C=C[C@@H](CO)O2)c(=O)[nH]c1=O .
Output line: no (0)

Input line: # outcome recorded in this test, key = CC(=O)C(=O)O
Output line: no (0)
